B1: SMTNL2 (parent)
chain: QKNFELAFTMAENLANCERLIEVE

Variants of: B1
Experiment: protein stability index of a GFP-peptide fusion (GPS, HEK-293T) (PSI 1-6); higher = more stable;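 further: lentivirally expressed fusions sorted by FACS into six bins by GFP to DsRed ratio, PSI derived from sequencing read proportions per bin multiplied by bin number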
Details: c terminus: a fixed tail appended
measurement name: protein stability index
Could you keep your reply to the number by itself?

> print(dat)
   mutation         measurement.name   val
1      C17G  protein stability index  2.98
2      A11R  protein stability index  3.03

For the next question, use this variant.
q: Tell us which protein stability index value is on record for `I21Y`
a: 2.99
